System: HeLa
assayText: Antitumor activity against HeLa cells by MTT assay
Assay type: functional, cell-based
conditionDescription: Homo sapiens
pIC50: −log10 of the molar value.
Each entry below carries its reported pIC50.
readoutType: pIC50

compound	reportedValue
C[C@H](CCC(=O)[C@@H](C)[C@H]1C(=O)C[C@H]2[C@@H]3CC=C4C[C@@H](O[C@@H]5O[C@@H](C)[C@H](O)[C@@H](O)[C@H]5O)CC[C@]4(C)[C@H]3CC[C@]12C)CO[C@@H]1O[C@H](CO)[C@@H](O)[C@H](O)[C@H]1O	< 5.00
C[C@H](CCC(=O)[C@@H](C)[C@H]1C(=O)C[C@H]2[C@@H]3CC=C4C[C@@H](O[C@@H]5OC[C@@H](O)[C@H](O)[C@H]5O)CC[C@]4(C)[C@H]3CC[C@]12C)CO[C@@H]1O[C@H](CO)[C@@H](O)[C@H](O)[C@H]1O	< 5.00
C[C@@H](CO)CCC(=O)[C@@H](C)[C@H]1C(=O)C[C@H]2[C@@H]3CC=C4C[C@@H](O)CC[C@]4(C)[C@H]3CC[C@]12C	< 5.00
CC(=O)OC[C@H](C)CCC(=O)[C@@H](C)[C@H]1C(=O)C[C@H]2[C@@H]3CC=C4CC(OC(=O)c5ccccc5)CC[C@]4(C)[C@H]3CC[C@]12C (some centres undefined)	< 5.00
